Data provenance: patent US20250171438A1

Target: human PAH with the R408W mutation (Homo sapiens, UniProt P00439, R408W)
Construct: expressed in transfected cells
Sequence (P00439 1-452 R408W): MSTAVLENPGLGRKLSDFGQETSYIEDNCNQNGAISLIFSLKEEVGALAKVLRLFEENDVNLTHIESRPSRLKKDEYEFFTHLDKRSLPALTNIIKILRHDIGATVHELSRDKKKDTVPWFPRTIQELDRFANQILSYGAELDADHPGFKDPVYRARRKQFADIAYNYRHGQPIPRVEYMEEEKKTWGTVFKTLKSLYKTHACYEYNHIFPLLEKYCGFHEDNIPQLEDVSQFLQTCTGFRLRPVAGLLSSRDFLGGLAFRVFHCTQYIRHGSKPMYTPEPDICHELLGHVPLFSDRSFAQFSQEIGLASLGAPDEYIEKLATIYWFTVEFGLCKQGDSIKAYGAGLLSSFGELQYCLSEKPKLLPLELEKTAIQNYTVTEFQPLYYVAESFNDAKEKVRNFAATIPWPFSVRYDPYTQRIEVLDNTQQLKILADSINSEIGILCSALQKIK
Assay: Cell Based Phenylalanine Flux Assay
Conditions: A375 cells expressing human R408W PAH; 24 hrs with compound; 13C-Tyrosine by LC-MS; average where tested multiple times; read-out: AC50
RECORDED_ENDPOINT: AC50

Answered cases to consult:
[
  {
    "MOLECULE": "Cc1nnc(C(=O)N2CC(C)c3[nH]cnc3C2c2nc3ccccc3s2)o1 (stereo not drawn)",
    "AC50": "> 5 µM"
  },
  {
    "MOLECULE": "Cn1ncc(C(=O)N2CCc3[nH]cnc3C2c2nc3c(F)cccc3s2)c1C#N (stereo not drawn)",
    "AC50": "> 5 µM"
  },
  {
    "MOLECULE": "COc1ccc2c(C(=O)N3CCc4[nH]cnc4C3c3nc4ccccc4s3)cnn2c1 (stereo not drawn)",
    "AC50": "1 to 5 µM"
  },
  {
    "MOLECULE": "CC1CN(C(=O)c2cnc(CN(C)C)o2)C(c2nc3ccccc3s2)c2nc[nH]c21 (stereo not drawn)",
    "AC50": "> 5 µM"
  },
  {
    "MOLECULE": "CC(=O)Cn1ncc(C(=O)N2CCc3[nH]cnc3[C@@H]2c2nc3c(F)cccc3s2)c1Cl (single isomer, unassigned)",
    "AC50": "> 5 µM"
  }
]

Input: Any idea what its AC50 is? The molecule is O=C(c1cc2ccccn2c1)N1CCc2[nH]cnc2C1c1nc2ccccc2s1 (stereo not drawn)
Output: > 5 µM

Input: Any idea what its AC50 is? The molecule is O=C(C1CC1)N1CCc2[nH]cnc2C1c1nc2ccc(Br)cc2s1 (stereo not drawn)
Output: 1 to 5 µM

Input: Any idea what its AC50 is? The molecule is Cc1nc(-c2ccccn2)oc1C(=O)N1CCCc2[nH]cnc2C1c1nc2ccccc2s1 (stereo not drawn)
Output: 1 to 5 µM

Input: Any idea what its AC50 is? The molecule is CC1CN(C(=O)c2cnc(N3CCOCC3)o2)C(c2nc3ccccc3s2)c2nc[nH]c21 (stereo not drawn)
Output: 1 to 5 µM
